Test target: T1, 4H2576-bH
T1 chain: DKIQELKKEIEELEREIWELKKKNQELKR
Measurement protocol: two-hybrid library CCNG1;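 note: natural log of median RNA to DNA barcode read ratio; higher means stronger binding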
Parameter: interaction score

P = DKIQELKKEIEELEREIWELKKKNQELKR [4H2576-bH]
Q = DKIQELEKKNEELEREIWELKKEIQELKR [4H2442-bH]
R = DENQELEKENEELKRKIWELKKEIQELER [4H1257-bH]
Order the records by interaction score, with each subsequent value no larger than the one before. Order the labels as requested and list them.
P, R, Q
